assay.protocol: chemical genetic growth profiling, strain panel (AID 1159580);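 further: tested at 20 µM; growth read once vehicle control cultures reached saturation at 30 °C; 1 = growth at the plate median or of vehicle wells; lower values mean less growth of the strain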
measurement.conditions: S. cerevisiae deletion strains, growth OD, locus YDR334W, strain swr1, hits give low values
The campaign covered roughly 5,500 compounds. About 2,000 (36%) were called active. Not shown: some 18% with an inconclusive outcome. The list shows a part of the results.
measured.attribute: normalized growth

>>> df
                              record_smiles  measured_attribute  measured_result
0  CC[C@@H](CO)NC(=O)[C@@H]1C=C2c3cccc4[nH]cc(c34)C[C@H]2N(C)C1   normalized growth                1
1                       COc1cc(O)cc(OC)c1OC   normalized growth            0.975
2    CC(=O)N[C@@H](Cc1c[nH]c2ccccc12)C(=O)O   normalized growth            0.981
3  CCCCc1nc(Cl)c(CO)n1Cc1ccc(-c2ccccc2-c2nn[nH]n2)cc1   normalized growth            0.966
4                   O=C(NC1CCCCC1)NC1CCCCC1   normalized growth            0.961
5                                NCCNCCNCCN   normalized growth                1
